# Test system: Rattus norvegicus
# Assay comment: Carrageenan paw edema index (CPE index) as ratio of the reduction in paw volume relative to tebufelone at a po (peroral) dose of 50 mg/kg.
# Type: functional
Reported CPE index values for a set of compounds
Write no unit; give the number alone.

Check out these entries, answers already filled in.
CC(C)CCCC(=O)c1cc(C(C)(C)C)c2c(c1)C(C)(C)CO2 :: 0.36
CC(C)(C)c1cc(C(=O)CCC2CC2)cc2c1OCC2(C)C :: 0.18
CC(C)(C)c1cc(C(=O)C[S+]([O-])CC2CC2)cc2c1OCC2(C)C (stereo unspecified) :: 0.04
CC(C)(Cl)CC(=O)c1cc(C(C)(C)C)c2c(c1)C(C)(C)CO2 :: 1.2
CC(C)(C)c1cc(C(=O)CSCC2CC2)cc2c1OCC2(C)C :: 0.62

Entry "COCCOCC(=O)c1cc(C(C)(C)C)c2c(c1)C(C)(C)CO2" has what CPE index? 0.52

Entry "CC(C)(C)C(=O)c1cc(C(C)(C)C)c2c(c1)C(C)(C)CO2" has what CPE index? 0.3

Entry "CC(=O)OCC(=O)c1cc(C(C)(C)C)c2c(c1)C(C)(C)CO2" has what CPE index? 0.21

Entry "CC(=O)SCC(=O)c1cc(C(C)(C)C)c2c(c1)C(C)(C)CO2" has what CPE index? 0.95

Entry "CC(C)(C)c1cc(C(=O)CS(=O)(=O)CC2CC2)cc2c1OCC2(C)C" has what CPE index? 0

Entry "CSCC(=O)c1cc(C(C)(C)C)c2c(c1)C(C)(C)CO2" has what CPE index? 1.77

---

# System: Rattus norvegicus
# Assay comment: Carrageenan paw edema index (CPE index) as ratio of the reduction in paw volume relative to tebufelone at a po (peroral) dose of 50 mg/kg.
# Format: functional
Measurement type: CPE index
Write no unit; give the number alone.

Check out these entries, answers already filled in.
CC(O)c1cc(C(C)(C)C)c2c(c1)C(C)(C)CO2 (centres undefined) :: 0
CC(C)(C)c1cc(C(=O)c2ccccc2Cl)cc2c1OCC2(C)C :: 0

Entry "CN(C)CCC(=O)c1cc(C(C)(C)C)c2c(c1)C(C)(C)CO2" has what CPE index? 0.32

Entry "CC(C)(C)c1cc(C(=O)c2ccc(F)cc2)cc2c1OCC2(C)C" has what CPE index? 0.52

Entry "CC(C)(C)c1cc(C(=O)C2CCCCC2)cc2c1OCC2(C)C" has what CPE index? 0.36

Entry "CCCCCC(=O)c1cc(C(C)(C)C)c2c(c1)C(C)(C)CO2" has what CPE index? 0.4

---

Entries below carry reported IC50 on Prostaglandin G/H synthase 1 (Homo sapiens).
Sequence (P23219 whole entry): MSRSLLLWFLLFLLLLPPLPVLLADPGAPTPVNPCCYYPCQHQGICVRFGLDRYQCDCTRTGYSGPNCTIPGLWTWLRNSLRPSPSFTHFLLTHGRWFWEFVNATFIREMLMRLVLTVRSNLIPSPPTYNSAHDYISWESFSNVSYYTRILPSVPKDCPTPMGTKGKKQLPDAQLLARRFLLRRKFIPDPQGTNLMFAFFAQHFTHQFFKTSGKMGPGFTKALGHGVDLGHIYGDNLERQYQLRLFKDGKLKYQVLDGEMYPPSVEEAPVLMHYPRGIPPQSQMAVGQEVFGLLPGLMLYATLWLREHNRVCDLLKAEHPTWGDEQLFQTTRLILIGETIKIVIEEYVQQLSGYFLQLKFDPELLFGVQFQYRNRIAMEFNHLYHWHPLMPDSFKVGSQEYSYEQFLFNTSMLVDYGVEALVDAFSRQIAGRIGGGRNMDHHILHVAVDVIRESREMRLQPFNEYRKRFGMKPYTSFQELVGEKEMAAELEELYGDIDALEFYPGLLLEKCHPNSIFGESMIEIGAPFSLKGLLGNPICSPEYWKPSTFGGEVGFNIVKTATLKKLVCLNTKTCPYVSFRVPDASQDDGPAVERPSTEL

CCCC(=O)c1cc(C(C)(C)C)c2c(c1)C(C)(C)CO2 :: 95 nM
CN(CC(=O)c1cc(C(C)(C)C)c2c(c1)C(C)(C)CO2)CC1CC1 :: 30000 nM
CC(C)(C)c1cc(C(=O)CS(=O)(=O)CC2CC2)cc2c1OCC2(C)C :: 5000 nM
C#CCCCC(=O)c1cc(C(C)(C)C)c2c(c1)C(C)(C)CO2 :: 60 nM

Can you look up IC50 on Prostaglandin G/H synthase 1 (Homo sapiens) for "CC(C)CCCC(=O)c1cc(C(C)(C)C)c2c(c1)C(C)(C)CO2" ? 15000 nM

Can you look up IC50 on Prostaglandin G/H synthase 1 (Homo sapiens) for "CC(C)(C)c1cc(C(=O)/C=C/CC2CC2)cc2c1OCC2(C)C" ? 800 nM

Can you look up IC50 on Prostaglandin G/H synthase 1 (Homo sapiens) for "CC(C)(Cl)CC(=O)c1cc(C(C)(C)C)c2c(c1)C(C)(C)CO2" ? 1000 nM

Can you look up IC50 on Prostaglandin G/H synthase 1 (Homo sapiens) for "CC(C)(C)c1cc(C(=O)CSCC2CC2)cc2c1OCC2(C)C" ? 650 nM

Can you look up IC50 on Prostaglandin G/H synthase 1 (Homo sapiens) for C#CCCCC(=O)c1cc(C(C)(C)C)c(O)c(C(C)(C)C)c1 [TEBUFELONE] ? 250 nM

Can you look up IC50 on Prostaglandin G/H synthase 1 (Homo sapiens) for "CC(C)(C)c1cc(C(=O)c2ccccc2)cc2c1OCC2(C)C" ? 150 nM

Can you look up IC50 on Prostaglandin G/H synthase 1 (Homo sapiens) for CC(C)(C)c1cc(C(=O)C[S+]([O-])CC2CC2)cc2c1OCC2(C)C (configuration not stated) ? 20000 nM

Can you look up IC50 on Prostaglandin G/H synthase 1 (Homo sapiens) for "CCCCCC(=O)c1cc(C(C)(C)C)c2c(c1)C(C)(C)CO2" ? > 10000 nM

---

# Experimental system: Prostaglandin G/H synthase 2 (Homo sapiens, UniProt P35354)
# Sequence (P35354 whole entry): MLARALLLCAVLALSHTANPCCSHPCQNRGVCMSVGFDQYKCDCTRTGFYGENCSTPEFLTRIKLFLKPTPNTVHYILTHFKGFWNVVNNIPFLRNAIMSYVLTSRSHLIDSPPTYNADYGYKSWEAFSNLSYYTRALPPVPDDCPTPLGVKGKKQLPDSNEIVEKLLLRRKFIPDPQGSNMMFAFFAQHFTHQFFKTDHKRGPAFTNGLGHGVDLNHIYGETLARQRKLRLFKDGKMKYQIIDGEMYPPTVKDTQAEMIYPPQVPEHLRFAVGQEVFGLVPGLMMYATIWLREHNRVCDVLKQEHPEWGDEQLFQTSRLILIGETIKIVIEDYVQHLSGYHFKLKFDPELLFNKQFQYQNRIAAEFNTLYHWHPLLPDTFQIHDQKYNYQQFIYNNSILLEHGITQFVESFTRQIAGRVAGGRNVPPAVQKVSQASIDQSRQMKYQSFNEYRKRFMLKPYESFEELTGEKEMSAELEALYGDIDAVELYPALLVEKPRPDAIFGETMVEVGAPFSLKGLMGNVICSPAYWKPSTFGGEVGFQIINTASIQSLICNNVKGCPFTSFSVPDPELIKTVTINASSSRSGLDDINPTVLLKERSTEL
Just so you know, the groups by IC50 go like this: L: < 100 nM; M: ≥ 100 nM and < 2000 nM; H: ≥ 2000 nM

Some solved cases for reference:
CC(C)(C)c1cc(C(=O)CSCC2CC2)cc2c1OCC2(C)C :: M
CC(C)(C)c1cc(C(=O)c2ccccc2)cc2c1OCC2(C)C :: L
CN(CC(=O)c1cc(C(C)(C)C)c2c(c1)C(C)(C)CO2)CC1CC1 :: H
CCCC(=O)c1cc(C(C)(C)C)c2c(c1)C(C)(C)CO2 :: L
C#CCCCC(=O)c1cc(C(C)(C)C)c2c(c1)C(C)(C)CO2 :: L
CC(C)(C)c1cc(C(=O)C[S+]([O-])CC2CC2)cc2c1OCC2(C)C (configuration not stated) :: H

Which bin, given its IC50, does "CC(C)(C)c1cc(C(=O)/C=C/CC2CC2)cc2c1OCC2(C)C" occupy? M

Which bin, given its IC50, does "CC(C)CCCC(=O)c1cc(C(C)(C)C)c2c(c1)C(C)(C)CO2" occupy? H

Which bin, given its IC50, does "CCCCCC(=O)c1cc(C(C)(C)C)c2c(c1)C(C)(C)CO2" occupy? L

---

# System: Mus musculus
# Assay comment: % reduction in phenylquinone-induced abdominal constriction (PAC) at po (peroral) dose of 70 mg/kg in mice
# Format: functional, Abdomen
Measurement type: Reduction (%)
Unit % implied. Number only.

Check out these entries, answers already filled in.
CC(C)=CC(=O)c1cc(C(C)(C)C)c2c(c1)C(C)(C)CO2 :: 50
CC(=O)c1cc(C(C)(C)C)c2c(c1)C(C)(C)CO2 :: 78
CCCC(=O)c1cc(C(C)(C)C)c2c(c1)C(C)(C)CO2 :: 85
CC(C)(C)c1cc(C(=O)C2CCCC2)cc2c1OCC2(C)C :: 56
CC(C)(C)c1cc(C(=O)c2ccccc2)cc2c1OCC2(C)C :: 34
CC(=O)SCC(=O)c1cc(C(C)(C)C)c2c(c1)C(C)(C)CO2 :: 64
CC(C)(C)c1cc(C(=O)CSCC2CC2)cc2c1OCC2(C)C :: 54
CC(C)(C)c1cc(C(=O)C2CC2)cc2c1OCC2(C)C :: 85
CC(C)(C)c1cc(C(=O)CCC2CC2)cc2c1OCC2(C)C :: 58

Now for a further molecule.
Can you look up Reduction on Mus musculus for "CSCC(=O)c1cc(C(C)(C)C)c2c(c1)C(C)(C)CO2" ? 35

---

Reported Selectivity values for a set of compounds
# Experimental system: Prostaglandin G/H synthase 1 (Homo sapiens)
# Assay comment: Tested for selectivity for inhibition of human platelet derived COX-1 and recombinant human COX-2
Write no unit; give the number alone.

Check out these entries, answers already filled in.
CC(C)(C)c1cc(C(=O)CS(=O)(=O)CC2CC2)cc2c1OCC2(C)C :: 2.5
CC(C)CCCC(=O)c1cc(C(C)(C)C)c2c(c1)C(C)(C)CO2 :: 3.3
CC(C)(C)c1cc(C(=O)C[S+]([O-])CC2CC2)cc2c1OCC2(C)C (stereo not given) :: 5

Now for a further compound.
Entry "CC(C)(C)c1cc(C(=O)CSCC2CC2)cc2c1OCC2(C)C" has what Selectivity? 1.6

---

Reported CPE index values for a set of compounds
# Test system: Rattus norvegicus
# Assay comment: Carrageenan paw edema index (CPE index) as ratio of the reduction in paw volume relative to tebufelone at a po (peroral) dose of 50 mg/kg.
# Assay type: functional
Write no unit; give the number alone.

CC(C)(C)c1cc(C(=O)C2CC2)cc2c1OCC2(C)C :: 0.67
CC(C)(C)c1cc(C(=O)CC2CC2)cc2c1OCC2(C)C :: 1.06
C[S+]([O-])CC(=O)c1cc(C(C)(C)C)c2c(c1)C(C)(C)CO2 (stereo not drawn) :: 1.01
CSCCC(=O)c1cc(C(C)(C)C)c2c(c1)C(C)(C)CO2 :: 0.7
CC(C)C(=O)c1cc(C(C)(C)C)c2c(c1)C(C)(C)CO2 :: 1.25

Entry "CC(C)(C)c1cc(C(=O)/C=C/CC2CC2)cc2c1OCC2(C)C" has what CPE index? 0.18

Entry "CC(C)(C)c1cc(C(=O)CS(C)(=O)=O)cc2c1OCC2(C)C" has what CPE index? 0

Entry "CC(=O)c1cc(C(C)(C)C)c2c(c1)C(C)(C)CO2" has what CPE index? 0.92
